System: HT-29
experimentNotes: 3 day proliferation assay, B-Raf V600E mutant cancer cell line
Assay type: cell-based
experimentalContext: Homo sapiens, HT-29, Colon, BRAF T119S, read-out: Mean gIC50
pIC50: −log10 of the molar value.
experimentalReadout: pIC50

Item under review: CC(C)(C)c1nc(-c2cccc(NS(=O)(=O)c3c(F)cccc3F)c2F)c(-c2ccnc(N)n2)s1 [Example 58a] . Reported pIC50? > 7.00

----------
assaySystem: BRAFV600E full-length (amino acids 2-766) (Homo sapiens, UniProt P15056, V600E)
Construct: His6-tagged BRAFV600E full-length (amino acids 2-766); His6; made in house; host or cells: baculovirus expression system (insect cells)
Sequence (P15056 2-766 V600E): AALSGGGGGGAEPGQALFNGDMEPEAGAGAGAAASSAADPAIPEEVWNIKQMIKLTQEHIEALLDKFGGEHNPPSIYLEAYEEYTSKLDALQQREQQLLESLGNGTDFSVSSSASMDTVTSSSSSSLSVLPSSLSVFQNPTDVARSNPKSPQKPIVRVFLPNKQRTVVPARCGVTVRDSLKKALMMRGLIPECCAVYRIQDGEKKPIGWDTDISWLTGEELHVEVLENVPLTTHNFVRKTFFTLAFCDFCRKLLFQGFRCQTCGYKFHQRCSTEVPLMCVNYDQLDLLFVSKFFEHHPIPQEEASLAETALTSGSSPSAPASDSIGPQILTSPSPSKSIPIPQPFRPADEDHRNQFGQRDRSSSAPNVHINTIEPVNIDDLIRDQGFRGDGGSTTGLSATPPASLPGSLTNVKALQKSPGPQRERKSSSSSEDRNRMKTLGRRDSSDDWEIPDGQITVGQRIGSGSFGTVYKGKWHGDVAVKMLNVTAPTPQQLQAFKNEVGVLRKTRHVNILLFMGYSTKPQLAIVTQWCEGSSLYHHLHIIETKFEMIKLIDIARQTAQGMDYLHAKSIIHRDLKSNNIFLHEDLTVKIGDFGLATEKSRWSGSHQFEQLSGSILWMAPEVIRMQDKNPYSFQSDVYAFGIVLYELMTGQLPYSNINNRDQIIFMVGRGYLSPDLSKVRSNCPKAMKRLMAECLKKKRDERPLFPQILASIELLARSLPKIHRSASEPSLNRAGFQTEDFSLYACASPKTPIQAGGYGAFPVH
experimentNotes: B-Raf Accelerated MEK ATPase assay (BRAMA)
Assay type: biochemical
experimentalContext: B-Raf pIC50, Table 1b; later runs, average pIC50 for the one or more runs, categorized
pIC50: −log10 of the molar value.
Would you mind telling me the reported pIC50 of each entry?

Here are 5 molecules together with their reported answers.
> print(dat)
                                  structure  valueobserved
1  CC(C)(C)c1nc(-c2cccc(NS(=O)(=O)c3c(F)cccc3F)c2F)c(-c2ccnc(NC3CCN(S(C)(=O)=O)CC3)n2)s1         ≥ 8.50
2  CC(C)(C)c1nc(-c2cccc(NS(=O)(=O)c3c(F)cccc3F)c2F)c(-c2ccnc(NC3CC3)n2)s1         ≥ 8.50
3  O=S(=O)(Nc1cccc(-c2nc(C3CCOCC3)sc2-c2ccnc(NCCO)n2)c1F)c1ccoc1         ≥ 8.50
4  Nc1nccc(-c2sc(C3CCC3)nc2-c2cccc(NS(=O)(=O)c3c(F)cccc3F)c2F)n1         ≥ 8.50
5  CS(=O)(=O)N1CCC(Nc2nccc(-c3sc(N4CCOCC4)nc3-c3cccc(NS(=O)(=O)c4ccco4)c3F)n2)CC1         ≥ 8.50

# per-item lookup of pIC50; items listed below
1. Nc1nccc(-c2sc(C3CCC3)nc2-c2cccc(NS(=O)(=O)c3c(F)cccc3F)c2Cl)n1
2. CC(C)(C)c1nc(-c2cccc(NS(=O)(=O)c3ccccc3F)c2F)c(-c2ccnc(N)n2)s1
3. CC(C)(C)c1nc(-c2cccc(NS(=O)(=O)c3ccoc3)c2F)c(-c2ccnc(N)n2)s1

≥ 8.50
≥ 8.50
≥ 8.50

# per-item lookup of pIC50; items listed below
1. CC(C)(C)c1nc(-c2cccc(NS(=O)(=O)c3cc(F)ccc3F)c2Cl)c(-c2ccnc(N)n2)s1
2. Cc1cccc(S(=O)(=O)Nc2cccc(-c3nc(C(C)(C)C)sc3-c3ccnc(N)n3)c2F)c1
3. CC(C)(C)c1nc(-c2cccc(NS(=O)(=O)c3ccoc3)c2F)c(-c2ccnc(N)n2)o1
4. CC(C)(C)c1nc(-c2c(F)ccc(NS(=O)(=O)c3cc(F)ccc3F)c2F)c(-c2ccnc(N)n2)s1
5. CC(C)c1nc(-c2ccc(F)c(NS(=O)(=O)c3cc(F)ccc3F)c2)c(-c2ccnc(NC3CCN(CCS(C)(=O)=O)CC3)n2)s1
6. CC(C)c1nc(-c2ccc(F)c(NS(=O)(=O)c3cn(C)cn3)c2)c(-c2ccnc(NCCCS(C)(=O)=O)n2)s1
7. Cc1nccc(-c2sc(C(C)(C)C)nc2-c2cccc(NS(=O)(=O)c3ccoc3)c2Cl)n1

1. ≥ 8.50
2. 6.00 to 7.50
3. ≥ 8.50
4. ≥ 8.50
5. 6.00 to 7.50
6. 6.00 to 7.50
7. ≥ 8.50

# per-item lookup of pIC50; items listed below
1. O=S(=O)(Nc1cccc(-c2nc(C3CCOCC3)sc2-c2ccnc(NC3CCOCC3)n2)c1F)c1ccoc1
2. Cc1nccc(-c2sc(C(C)(C)C)nc2-c2c(F)ccc(NS(=O)(=O)c3cc(F)ccc3F)c2F)n1
3. CNc1nccc(-c2sc(C(C)C)nc2-c2ccc(F)c(NS(=O)(=O)c3c(F)cccc3F)c2)n1
4. COc1ccc(F)cc1S(=O)(=O)Nc1cccc(-c2nc(C(C)C)sc2-c2ccnc(NC3CCN(S(C)(=O)=O)CC3)n2)c1
5. CC(C)c1nc(-c2ccc(F)c(NS(=O)(=O)C3CC3)c2)c(-c2ccnc(NCCS(C)(=O)=O)n2)s1
6. Nc1nccc(-c2sc(N3CCS(=O)(=O)CC3)nc2-c2cccc(NS(=O)(=O)c3cc(F)ccc3F)c2F)n1

1: ≥ 8.50; 2: ≥ 8.50; 3: 6.00 to 7.50; 4: 6.00 to 7.50; 5: 6.00 to 7.50; 6: ≥ 8.50
